Measured solubility kinetic, listed per entry.
- experimental.context: buffer; pH 7.4; 200.0 µM
recorded.endpoint: solubility kinetic

molecule	recorded.endpoint	reported.measurement
CN1CCOCCOCCOCCN(C)C1=S	solubility kinetic	> 39.4 µg/mL
Nc1nc(Nc2ccccc2)nc(NC2CCCCC2)c1[N+](=O)[O-]	solubility kinetic	< 0.1 µg/mL
Cc1ccc[n+](CC(=O)Nc2ccc(C)c(C)c2)c1.[Cl-]	solubility kinetic	> 43.6 µg/mL
COC(=O)c1ccc(OC(=O)c2ccncc2)cc1O	solubility kinetic	> 41 µg/mL
O=C(Nc1ccccc1)Nc1ccc(Nc2ccccc2)cc1	solubility kinetic	< 0.2 µg/mL
CCOCCN(C(=O)c1ccccc1Cl)c1cccc(C)c1C	solubility kinetic	> 49.8 µg/mL
Cc1ccc(Cn2cc(CCC(=O)O)c3ccccc32)cc1	solubility kinetic	> 44 µg/mL
Cc1cc(N2CCN(C)CC2)nc(-c2ccccc2O)n1	solubility kinetic	> 42.7 µg/mL
CC1CCN(C(=O)COC(=O)/C=C/c2ccco2)CC1	solubility kinetic	> 41.6 µg/mL
CC(NC(=O)CSc1ccccc1C(=O)O)C1CC2CCC1C2 (stereo not given)	solubility kinetic	> 50 µg/mL
COc1cc(NC(=O)c2ccccn2)cc(OC)c1OC	solubility kinetic	> 43.2 µg/mL
CC(=O)c1cccc(OCC(O)CNCC2CCCCC2)c1 (stereo not given)	solubility kinetic	> 45.8 µg/mL
CC(C(=O)O/N=C(\N)c1ccccn1)c1ccc([N+](=O)[O-])cc1 (stereo not given)	solubility kinetic	> 47.1 µg/mL
COc1ccc(OC)c(CNC(=O)C2CCN(S(C)(=O)=O)CC2)c1	solubility kinetic	> 53.5 µg/mL
Fc1ccc(NC(=S)NCc2ccccc2)cc1	solubility kinetic	> 39 µg/mL

###

Measured solubility kinetic, listed per entry.
- experimental.context: buffer; pH 7.4; 200.0 µM

compound	solubility kinetic
CN1CC(=O)Nc2ccc(Br)cc2C1=O	> 40.4 µg/mL
O=C(NCC(c1ccco1)N1CCOCC1)c1ccc([N+](=O)[O-])cc1 (stereo unspecified)	> 51.8 µg/mL
CCCn1c2c(c(=N)c3c1CCC3)CCC2.I	> 51.6 µg/mL
COC(=O)C/C(N)=C(\C#N)C(=O)OC	> 29.7 µg/mL
Cc1ccsc1/C=C(\CC(=O)O)c1nc2ccccc2o1	> 44.9 µg/mL
O=S(=O)(NC1=NCCCCC1)c1ccc(Cl)cc1	> 43 µg/mL

###

- experimental.context: buffer; pH 7.4; 200.0 µM

molecule	solubility kinetic
O=C(CSc1nccc(=O)[nH]1)Nc1ccc2ccccc2c1	> 46.7 µg/mL
CCCCC1=NN(C(=O)c2ccncc2)C(O)(C(F)(F)F)C1 (stereo not drawn)	> 47.3 µg/mL
Cc1cccc(C)c1OCC(O)CNC(C)c1ccccc1.Cl (stereo not drawn)	> 50.4 µg/mL

###

- experimental.context: buffer; pH 7.4; 200.0 µM
Measured solubility kinetic, listed per entry.
recorded.endpoint: solubility kinetic

compound	recorded.endpoint	reported.measurement
COc1ccc(NS(=O)(=O)c2cn(C)cn2)cc1	solubility kinetic	> 40.1 µg/mL
CCCc1ccc(OCCNC(=O)c2ccco2)cc1	solubility kinetic	> 41 µg/mL
CN(CC(=O)N(C)CC(=O)Nc1c(Cl)cccc1Cl)Cc1ccccc1F	solubility kinetic	> 61.8 µg/mL
COc1ccc2nc(C)cc(NCc3ccc(F)cc3)c2c1	solubility kinetic	> 44.5 µg/mL
Cc1ccc(OC(C)C(=O)OCC(=O)Nc2sccc2C(N)=O)cc1 (stereo unspecified)	solubility kinetic	> 54.4 µg/mL
O=C(CSc1nnc2ccccn12)NCCc1ccc(F)cc1	solubility kinetic	> 49.6 µg/mL
